# System tested: T1, PabPolB exo- (family B DNA polymerase, exonuclease-deficient) (Pyrococcus abyssi, UniProt P0CL77 1-771, D215A)
# T1 sequence: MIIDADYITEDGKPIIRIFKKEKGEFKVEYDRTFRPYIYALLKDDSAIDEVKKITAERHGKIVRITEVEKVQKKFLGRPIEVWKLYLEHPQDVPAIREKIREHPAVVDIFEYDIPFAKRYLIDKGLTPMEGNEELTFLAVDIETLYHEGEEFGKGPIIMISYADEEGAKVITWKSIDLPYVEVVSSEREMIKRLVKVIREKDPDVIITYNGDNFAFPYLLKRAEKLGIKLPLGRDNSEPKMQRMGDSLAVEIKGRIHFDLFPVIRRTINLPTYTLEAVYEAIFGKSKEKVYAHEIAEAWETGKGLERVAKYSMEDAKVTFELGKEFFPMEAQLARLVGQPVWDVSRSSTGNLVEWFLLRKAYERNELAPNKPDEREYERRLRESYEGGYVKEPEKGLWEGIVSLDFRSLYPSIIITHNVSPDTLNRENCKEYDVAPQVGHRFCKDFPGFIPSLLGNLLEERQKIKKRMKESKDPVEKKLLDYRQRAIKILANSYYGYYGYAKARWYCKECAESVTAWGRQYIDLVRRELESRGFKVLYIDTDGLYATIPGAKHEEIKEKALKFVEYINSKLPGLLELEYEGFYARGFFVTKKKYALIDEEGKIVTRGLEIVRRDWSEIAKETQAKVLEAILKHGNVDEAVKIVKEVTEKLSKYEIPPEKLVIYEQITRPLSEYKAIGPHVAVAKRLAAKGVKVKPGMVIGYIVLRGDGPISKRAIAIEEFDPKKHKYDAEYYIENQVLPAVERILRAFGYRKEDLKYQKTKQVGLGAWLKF
# Protocol: fluorescence anisotropy
Assay endpoint: Kd (nM)
Supply the numeric figure in nM, leaving out any unit text.

Asked: Name the recorded Kd of the item HEX-labeled primer/template 18/25 (dsDNA) DNA 1: CGCCGGGCCGAGCCGTGC DNA 2: AGGTCGTGCACGGCTCGGCCCGGCG in your answer.
Given back: 7
